Test system: Hs-578T
Assay: NCI tumour cell line growth inhibition, 48 h
Activity calls are given as the source filed them. Rule as the data show it: active = GI50 up to about 1.1 µM and inactive = higher.
parameter-measured: GI50

INSERT INTO results (compound, experimental_result) VALUES
  ('O=[N+]([O-])c1cccnc1-n1cnc2ccccc21', '> 100 µM (inactive)'),
  ('O=C(c1ccccc1)C1C(c2ccccc2[N+](=O)[O-])N1C1CCCCC1 (stereo not given)', '10.3 µM (inactive)'),
  ('O[C@H]1[C@H](O)[C@@H](O)[C@@]2(O)C[C@@H](O)[C@@H]1N2', '> 100 µM (inactive)'),
  ('COc1ccc(/C=C2/C(=O)N(/C=C3\C(=O)Oc4ccccc4C3=O)/C(=N/C(C)=O)N2C)cc1OC', '> 100 µM (inactive)'),
  ('c1csc(-c2cscc2-c2cccs2)c1', '54.8 µM (inactive)'),
  ('CCOC(=O)c1c(C)n(C)c2c1cc(O)c1[nH]c3c(c12)CCCC3', '32.7 µM (inactive)'),
  ('CCOC(=O)C(SCCO)C(C(=O)OCC)n1cnc2c(N)ncnc21 (stereo not given)', '17.3 µM (inactive)'),
  ('O=C(Nc1cc2cc([N+](=O)[O-])ccc2oc1=O)c1cccs1', '30.8 µM (inactive)'),
  ('COc1ccc(/C=C/C(=O)Oc2ccccc2OC)cc1', '41.7 µM (inactive)'),
  ('C=C1C(C2(C)C(OC(C)=O)CC(=O)OC(C)(COC(C)=O)C2CC(=O)OC)C(OC=O)C(OC(=O)C(O)C(C)CC)C2(C)C(c3ccoc3)CC(=O)C12O (stereo not given)', '8.05 µM (inactive)');

These data points were gathered from ChEMBL document CHEMBL1201862.
